Tested on: NCI-H358
PROCEDURE SUMMARY: Cytotoxicity against human NCI-H358 cells assessed as reduction in cell viability incubated for 24 hrs by MTT assay
Assay type: functional, cell-based
CONDITION DETAILS: NCI-H358, 24 h
READOUT TYPE: IC50 (µM)
Use µM as the unit, but write only the number.

Task: Answer with reported IC50 of OCCN1CCN(CC#Cc2c3ccccc3c(C#CCN3CCN(CCO)CC3)c3ccccc23)CC1
Result: 6.21

* * *

System: PC-9
PROCEDURE SUMMARY: Cytotoxicity against human PC-9 cells assessed as reduction in cell viability incubated for 24 hrs by MTT assay
Type: functional, cell-based
CONDITION DETAILS: PC-9, 24 h
READOUT TYPE: IC50 (µM)
Use µM as the unit, but write only the number.

Task: Report IC50 on PC-9 for this entry: OCCN1CCN(CC#Cc2c3ccccc3c(C#CCN3CCN(CCO)CC3)c3ccccc23)CC1
Result: 2.5

* * *

Test system: NCI-H1975
PROCEDURE SUMMARY: Cytotoxicity against human NCI-H1975 cells assessed as reduction in cell viability incubated for 24 hrs by MTT assay
Assay type: functional, cell-based
CONDITION DETAILS: NCI-H1975, 24 h
READOUT TYPE: pIC50
Worth noting: pIC50 values are minus log10 of concentrations stated in mol/L.

Task: Answer with reported pIC50 of OCCN1CCN(CC#Cc2c3ccccc3c(C#CCN3CCN(CCO)CC3)c3ccccc23)CC1
Result: 5.49

* * *

System: A549
PROCEDURE SUMMARY: Cytotoxicity against human A549 cells assessed as reduction in cell viability incubated for 24 hrs by MTT assay
Assay type: functional, cell-based
CONDITION DETAILS: A549, 24 h
READOUT TYPE: IC50 (µM)
Use µM as the unit, but write only the number.

Task: Answer with reported IC50 of OCCN1CCN(CC#Cc2c3ccccc3c(C#CCN3CCN(CCO)CC3)c3ccccc23)CC1
Result: 5.2
